Biological target: κ opioid receptor (OPRK1) (Homo sapiens)
Sequence (P41145 whole entry): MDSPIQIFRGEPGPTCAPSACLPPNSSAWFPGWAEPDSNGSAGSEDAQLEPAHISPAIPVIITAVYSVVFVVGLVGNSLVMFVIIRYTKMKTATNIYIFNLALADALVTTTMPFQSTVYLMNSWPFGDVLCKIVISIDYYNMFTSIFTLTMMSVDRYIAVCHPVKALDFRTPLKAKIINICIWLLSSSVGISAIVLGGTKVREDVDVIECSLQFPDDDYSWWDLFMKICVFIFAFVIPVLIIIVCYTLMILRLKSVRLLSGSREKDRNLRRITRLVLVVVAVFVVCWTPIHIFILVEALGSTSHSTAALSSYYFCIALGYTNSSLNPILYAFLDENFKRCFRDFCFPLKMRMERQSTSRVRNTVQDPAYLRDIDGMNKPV
Test: cell-based
pEC50: −log10 of the molar value.
Listing: pEC50 of selected compounds

structure_as_smiles=O=S(=O)(Nc1cccc(N2C3CCC2CN(CCCc2ccccc2)C3)c1)C1CC1 measured_on="κ opioid receptor (OPRK1) (Homo sapiens)" observed_result="< 5.00"

In the following, a different compound is considered.
### Prompt Report pEC50 for "Nc1cccc(N2C3CCC2CN(CCCc2ccccc2)C3)c1" please.
### Response < 5.00

---

Molecular target: UniProt P41143
Sequence (P41143 whole entry): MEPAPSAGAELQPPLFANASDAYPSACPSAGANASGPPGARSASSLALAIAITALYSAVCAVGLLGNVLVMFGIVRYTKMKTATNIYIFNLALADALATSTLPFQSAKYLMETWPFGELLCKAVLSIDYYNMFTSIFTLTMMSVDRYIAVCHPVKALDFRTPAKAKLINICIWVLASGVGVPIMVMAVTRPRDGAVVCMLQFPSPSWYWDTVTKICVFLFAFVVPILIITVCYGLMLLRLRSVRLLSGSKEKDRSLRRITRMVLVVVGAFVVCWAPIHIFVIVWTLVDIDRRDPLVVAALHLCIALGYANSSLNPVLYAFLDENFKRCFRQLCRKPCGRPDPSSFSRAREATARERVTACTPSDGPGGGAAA
Test: cell-based
Assay type: cell-based
Details: read-out: DOR cAMP Emax ± SEM (%)
assay-endpoint: Emax (%)
Could you give me the number in %? Just the number is fine.

molecule="NC(=O)c1cccc(N2C3CCC2CN(CCCc2ccccc2)C3)c1F [Compound 19]" unit_string=% observed_result=71.4
molecule="O=S(=O)(Nc1cccc(N2C3CCC2CN(CCCc2ccccc2)C3)c1)C1CC1 [Compound 12]" unit_string=% observed_result=71
molecule="NC(=O)c1cc(N2C3CCC2CN(CCCc2ccccc2)C3)ccc1F [Compound 18]" unit_string=% observed_result=56.2
molecule="NC(=O)c1cc(N2C3CCC2CN(CCCc2ccccc2)C3)ccc1O [Compound 16]" unit_string=% observed_result=34.8
molecule="Nc1cccc(N2C3CCC2CN(CCCc2ccccc2)C3)c1 [Compound 11]" unit_string=% observed_result=71.1

### Prompt Report Emax for NC(=O)c1cccc(N2C3CCC2CN(CCCc2ccccc2)C3)c1 [Compound 13] please.
### Response 81.3

---

Target: UniProtKB P35372
Assay: cell-based
Listing: EC50 of selected compounds

structure_as_smiles=NC(=O)c1ccccc1N1C2CCC1CN(CCCc1ccccc1)C2 observed_result="0.7 µM"
structure_as_smiles=Nc1cccc(N2C3CCC2CN(CCCc2ccccc2)C3)c1 observed_result="> 10 µM"
structure_as_smiles=FC(F)c1cccc(N2C3CCC2CN(CCCc2ccccc2)C3)c1 observed_result="> 10 µM"
structure_as_smiles=NC(=O)c1cc(N2C3CCC2CN(CCCc2ccccc2)C3)ccc1F observed_result="> 10 µM"

In the following, a different compound is considered.
### Prompt Report EC50 for "Oc1cc(F)cc(N2C3CCC2CN(CCCc2ccccc2)C3)c1" please.
### Response > 10 µM

---

Listing: Emax of selected compounds
Molecular target: human μ opioid receptor β-arrestin-2 (Homo sapiens, UniProt P35372)
Sequence (P35372 whole entry): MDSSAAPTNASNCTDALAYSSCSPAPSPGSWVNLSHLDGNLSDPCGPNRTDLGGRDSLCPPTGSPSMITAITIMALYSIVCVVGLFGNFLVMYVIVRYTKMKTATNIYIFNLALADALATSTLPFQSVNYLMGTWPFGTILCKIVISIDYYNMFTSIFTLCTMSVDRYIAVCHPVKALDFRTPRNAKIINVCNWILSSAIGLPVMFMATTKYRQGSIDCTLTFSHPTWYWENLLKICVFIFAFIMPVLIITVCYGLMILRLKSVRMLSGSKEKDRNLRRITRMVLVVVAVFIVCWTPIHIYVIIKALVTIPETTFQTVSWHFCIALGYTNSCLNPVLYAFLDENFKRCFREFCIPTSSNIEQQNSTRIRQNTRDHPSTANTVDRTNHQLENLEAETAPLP
Assay: cell-based
Conditions: read-out: β-Arrestin Recruitment %Emax ± SEM
Report as: number unit

# count of solved cases: 5
compound="NC(=O)c1ccccc1N1C2CCC1CN(CCCc1ccccc1)C2 [Compound 14]" observed_result=26.5%
compound="NC(=O)c1cccc(N2C3CCC2CN(CCCc2ccccc2)C3)c1 [Compound 13]" observed_result=7.5%
compound="Oc1cc(F)cc(N2C3CCC2CN(CCCc2ccccc2)C3)c1 [Compound 8]" observed_result=0%
compound="O=[N+]([O-])c1cccc(N2C3CCC2CN(CCCc2ccccc2)C3)c1 [Compound 10]" observed_result=0%
compound="C[C@@H](NC(=O)[C@@H](N)Cc1ccc(O)cc1)C(=O)NCC(=O)N(C)[C@@H](Cc1ccccc1)C(=O)NCCO [DAMGO, reference compound]" observed_result=102%

### Prompt Report Emax for NC(=O)c1cccc(N2C3CCC2CN(CCCc2ccccc2)C3)c1F [Compound 19] please.
### Response 0%

### Prompt Report Emax for NC(=O)c1cc(N2C3CCC2CN(CCCc2ccccc2)C3)ccc1O [Compound 16] please.
### Response 0%
